Assay target: Proto-oncogene tyrosine-protein kinase Src (Homo sapiens) (UniProt P12931)
Sequence (P12931 2-536 limits assumed): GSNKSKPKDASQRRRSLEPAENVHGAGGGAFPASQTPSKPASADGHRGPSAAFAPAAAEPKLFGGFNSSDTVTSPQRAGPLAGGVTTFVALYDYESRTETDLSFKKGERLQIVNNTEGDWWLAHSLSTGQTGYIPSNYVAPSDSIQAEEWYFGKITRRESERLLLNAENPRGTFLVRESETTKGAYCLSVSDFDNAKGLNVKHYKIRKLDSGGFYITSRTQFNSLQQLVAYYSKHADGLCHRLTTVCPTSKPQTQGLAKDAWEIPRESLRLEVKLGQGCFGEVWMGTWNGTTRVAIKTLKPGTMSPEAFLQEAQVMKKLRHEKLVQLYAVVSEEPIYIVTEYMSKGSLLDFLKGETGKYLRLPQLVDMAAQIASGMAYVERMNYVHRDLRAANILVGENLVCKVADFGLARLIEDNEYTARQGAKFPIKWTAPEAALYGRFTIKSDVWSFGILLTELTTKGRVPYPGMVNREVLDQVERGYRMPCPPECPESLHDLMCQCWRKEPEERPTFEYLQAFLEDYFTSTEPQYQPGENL
Procedure summary: Inhibition of Src at 10 uM after 20 mins
Measured parameter: inhibition (%)

Here is how some compounds turned out for inhibition.
>>> df
                                test_smiles  measured_parameter  reported_result
0                Nc1ncnc2c1nc1n2Cc2ccccc2N1          inhibition               72
1  Cl.c1ccc(CNc2ncnc3c2nc2n3Cc3ccccc3N2CCN2CCOCC2)cc1          inhibition                9
2  Cl.Clc1ccccc1Nc1ncnc2c1nc1n2Cc2ccccc2N1CCN1CCOCC1          inhibition               20
3            Nc1nc(Cl)nc2c1nc1n2Cc2ccccc2N1          inhibition               49
4  CCN(CC)CCN1c2ccccc2Cn2c1nc1c(Nc3ccccc3)ncnc12.Cl          inhibition                0

[P] Brc1ccccc1Nc1ncnc2c1nc1n2Cc2ccccc2N1CCN1CCOCC1.Cl
[Q] c1ccc(Nc2ncnc3c2nc2n3Cc3ccccc3N2)cc1
Ask: Pick one: P or Q . Which has the bigger inhibition number? Mark your answer with the label of the selected entry.
Result: Q
